Overview of recorded pIC50 for various compounds
Target: UniProt:Q9H3N8
Sequence (Q9H3N8 whole entry): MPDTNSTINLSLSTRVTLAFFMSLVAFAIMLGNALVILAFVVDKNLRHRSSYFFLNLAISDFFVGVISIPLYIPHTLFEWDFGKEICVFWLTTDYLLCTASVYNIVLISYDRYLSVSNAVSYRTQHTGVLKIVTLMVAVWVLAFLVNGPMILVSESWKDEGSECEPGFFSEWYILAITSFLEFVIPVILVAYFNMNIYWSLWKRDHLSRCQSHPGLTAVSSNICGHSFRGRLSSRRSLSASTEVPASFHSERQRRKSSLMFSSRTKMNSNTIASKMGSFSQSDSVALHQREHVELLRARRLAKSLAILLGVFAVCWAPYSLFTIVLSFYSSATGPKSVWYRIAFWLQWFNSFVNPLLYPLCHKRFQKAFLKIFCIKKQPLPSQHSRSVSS
Test: H4 Membrane Binding Assay (3H-Histamine displacement)
Conditions: membranes of recombinant HEK293SFM cells, 10 nM 3H-Histamine, 1.5 hr at room temperature
pIC50 here: minus log base 10 of the concentration, concentration in moles per litre.

Worked set:
[[record]]
compound = "C[C@@H](NC(=O)c1ccc2c(N3CCN(C)CC3)nc(N)nc2c1)c1ccc2ccccc2c1 [Example 21]"
property = "pIC50"
observed_measurement = 6.98

[[record]]
compound = "COc1cccc(COc2cccc3c2CCN(C(=O)c2ccc4c(N5CCN(C)CC5)nc(N)nc4c2)C3)c1 [Example 208]"
property = "pIC50"
observed_measurement = 7.62

[[record]]
compound = "CN1CCN(c2cc(-c3ccc4c(c3)CN(C(=O)CC3CCN(C(=O)c5ccccc5)CC3)CC4)nc(N)n2)CC1 [Example 73]"
property = "pIC50"
observed_measurement = 6.45


Attention now turns to another entry.
Q: Provide measured pIC50 on UniProt:Q9H3N8 for CCOC(=O)[C@@H]1CCCC[C@@H]1NC(=O)N1CCc2ccc(-c3cc(N4CCN(C)CC4)nc(N)n3)cc2C1 (relative stereo) [Example 53] please.
A: 6.97
